subject_of_test: T1, XCR1-SMALP (Homo sapiens, UniProt P46094)
T1 sequence (P46094 1-333): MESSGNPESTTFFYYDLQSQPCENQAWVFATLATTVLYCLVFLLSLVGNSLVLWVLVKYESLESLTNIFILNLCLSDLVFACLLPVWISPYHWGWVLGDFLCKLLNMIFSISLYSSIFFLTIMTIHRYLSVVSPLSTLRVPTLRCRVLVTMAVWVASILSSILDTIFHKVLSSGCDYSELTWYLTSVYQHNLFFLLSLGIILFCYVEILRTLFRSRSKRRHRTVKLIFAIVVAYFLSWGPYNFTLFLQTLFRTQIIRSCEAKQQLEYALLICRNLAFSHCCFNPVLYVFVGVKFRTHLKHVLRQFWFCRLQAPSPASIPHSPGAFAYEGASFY
assay_comment: Yeast-display non-specific binding to irrelevant XCR1-SMALP
run_parameters: 25 nM; fold change compared to LIBC528116 (Fab), after background subtraction
value_type: 25 nM XCR1-SMALP-GFP, relative binding fold change

{"columns": ["molecule", "data_value"],
 "data": [
  ["LIBC681593-1: further VK1 LC-optimized affinity-matured variant (antibody, V domains shown) VH: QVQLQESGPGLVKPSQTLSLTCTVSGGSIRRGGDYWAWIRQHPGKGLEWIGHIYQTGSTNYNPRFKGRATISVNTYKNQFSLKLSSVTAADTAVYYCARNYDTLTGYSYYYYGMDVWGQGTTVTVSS VL: DIQMTQSPSSLSASVGDRVTITCRASQSISSYLNWYQQKPGKAPKLLIYNARRLGSGVPSRFSGSGSGTDFTLTISSLQPEDFATYYCQQYRSSPVTFGGGTKVEIKR", 0.72]
]}
